Every entry's value here was drawn from the supplement of paper PMC11208160.

test: recombinant barcode read abundance after kanamycin selection (control-corrected) (log10(CPM+1)); higher = more efficient recombination; sequences stand for … in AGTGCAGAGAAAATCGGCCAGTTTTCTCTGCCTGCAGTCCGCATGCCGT…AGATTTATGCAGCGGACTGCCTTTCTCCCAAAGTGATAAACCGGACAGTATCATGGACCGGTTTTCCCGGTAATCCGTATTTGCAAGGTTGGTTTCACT; site = the 11-nt target;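 further: IS621 recombinase and bridge RNA in Escherichia coli cells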
Each record gets a class by recombinant barcode read abundance (log10): 0 (below 0.1), 1 (0.1 to below 0.4), 2 (0.4 or more)

## Input For ATGCGAGCTTGGGTTCTAACCTGTTGCCG (site ATGCGAGCTCG) , which recombinant barcode read abundance (log10) bin applies?
## Output 2

## Input In plain terms, what class is CTATTTCCTTGGGTTCTAACCTGTTGCCT (site CGGTTTCCTAG) ?
## Output 0

## Input Category of CTATTCTCTTGGGTTCTAACCTGTTGCTA (site CTATACTCTTG) :
## Output 1

## Input Note: place this sequence into its band. Item: CCAGTATCTTGGGTTCTAACCTGTTGCAT (site CCAGTATCTAT)
## Output 2

## Input Note: place this sequence into its band. Item: AGAACAACTTGGGTTCTAACCTGTTGCCT (site AGAACAACTAG)
## Output 1

## Input Bin? AAGGCCGCTTGGGTTCTAACCTGTTGCCT (site AAGGACGCTAG)
## Output 2

## Input Sort into band: GCCATGTCTTGGGTTCTAACCTGTTGCTA (site GCCATGTCTTA)
## Output 1

## Input Band for the recorded recombinant barcode read abundance (log10) of GAGCGTACTTGGGTTCTAACCTGTTGCAT (site GAGTGTACTAT) ?
## Output 0

## Input Pick a category. Item: TACAAGTCTTGGGTTCTAACCTGTTGCAG (site TACAAGCCTCC)
## Output 1

## Input Determine which band this sequence sits in: GTATCATCTTGGGTTCTAACCTGTTGCCT (site GTATCAACTAG)
## Output 1

----------
assay: recombinant barcode read abundance after kanamycin selection (control-corrected) (log10(CPM+1)); higher = more efficient recombination; sequences stand for … in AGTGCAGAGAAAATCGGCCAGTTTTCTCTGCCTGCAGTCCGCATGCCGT…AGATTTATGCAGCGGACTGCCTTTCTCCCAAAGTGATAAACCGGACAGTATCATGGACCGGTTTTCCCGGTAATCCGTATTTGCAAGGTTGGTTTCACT; site = the 11-nt target
measured attribute: recombinant barcode read abundance (log10)
No unit in the answer, please; the number alone is enough.

## Input Quick one: recombinant barcode read abundance (log10) of GACCTACCTTGGGTTCTAACCTGTTGCAG (site GACCTCCCTCA) ?
## Output 0.136

## Input So what does the record say about recombinant barcode read abundance (log10) for TATTCTACTTGGGTTCTAACCTGTTGCGT (site TATTCTACTGC) ?
## Output 0.0341

## Input // lookup recombinant barcode read abundance (log10) for TAGTGCTCTTGGGTTCTAACCTGTTGCTC (site TAGAGCTCTCA)
## Output 0.185

## Input I have this sequence here, GCCTGCCCTTGGGTTCTAACCTGTTGCCT (site GACTGCCCTAG) , and I need its recorded recombinant barcode read abundance (log10).
## Output 0.0828

## Input Find the recorded recombinant barcode read abundance (log10) belonging to CGATTACCTTGGGTTCTAACCTGTTGCCT (site CGATTATCTAG) and report it.
## Output 0.11

## Input Need recombinant barcode read abundance (log10) of ACGTCACCTTGGGTTCTAACCTGTTGCCT (site TCGTCACCTAG) , thanks.
## Output 0.17

## Input Which recombinant barcode read abundance (log10) reading was recorded for the sequence GGACGCGCTTGGGTTCTAACCTGTTGCGG (site GGACGCGCTCC) ?
## Output 2.43

## Input Return reported recombinant barcode read abundance (log10); argument: TCTTATTCTTGGGTTCTAACCTGTTGCGT (site TCTAATTCTAC)
## Output 0.0715

## Input I am curious: what recombinant barcode read abundance (log10) value has been reported for ATGTCTCCTTGGGTTCTAACCTGTTGCCT (site ATGTCTCCTAG) ?
## Output 1

## Input Endpoint output: recombinant barcode read abundance (log10) of ATATGCGCTTGGGTTCTAACCTGTTGCCG (site ATATGTGCTCG) . Value?
## Output 0.262

## Input Bench note: what recombinant barcode read abundance (log10) did GGTGGCTCTTGGGTTCTAACCTGTTGCCA (site GGTGGCTCTTG) show?
## Output 0.607

## Input recombinant barcode read abundance (log10) lookup needed for TATCCGACTTGGGTTCTAACCTGTTGCCA (site TATCCGACTTG) , thanks.
## Output 0.135

## Input What does the record list as recombinant barcode read abundance (log10) for AGTATGTCTTGGGTTCTAACCTGTTGCCT (site AGTATGTCTAG) ?
## Output 1.13

## Input Given the entry ACACGCCCTTGGGTTCTAACCTGTTGCAC (site ACACGCCCTGT) , report its measured recombinant barcode read abundance (log10).
## Output 0.333

## Input Query: recombinant barcode read abundance (log10); subject: TCCGTGCCTTGGGTTCTAACCTGTTGCCT (site TCCGTGGCTAG)
## Output 0.304

## Input Requested read-out: recombinant barcode read abundance (log10). Entry: TATAGGGCTTGGGTTCTAACCTGTTGCCG (site GATAGGGCTCC)
## Output 0

## Input For TGTAGATCTTGGGTTCTAACCTGTTGCAT (site TGTAGATCTAT) , what is its reported recombinant barcode read abundance (log10)?
## Output 0.152

## Input # recombinant barcode read abundance (log10) lookup, item GGTGGGTCTTGGGTTCTAACCTGTTGCAT (site GGTGGGTCTAC)
## Output 0.128

## Input // lookup recombinant barcode read abundance (log10) for GTCGACACTTGGGTTCTAACCTGTTGCCT (site GTCGACACTAG)
## Output 1.5

## Input Form field: reported recombinant barcode read abundance (log10) of TAGAAGCCTTGGGTTCTAACCTGTTGCCT (site GAGAAGCCTAG)
## Output 0.06

## Input Sample AGAATATCTTGGGTTCTAACCTGTTGCCT (site AGATTATCTAG) — what was its recombinant barcode read abundance (log10)?
## Output 0.193

## Input I would be grateful if you could share the reported recombinant barcode read abundance (log10) for CGGAATCCTTGGGTTCTAACCTGTTGCTT (site CGGAATCCTAG) .
## Output 0.316

## Input Which value of recombinant barcode read abundance (log10) has been reported for GACTATGCTTGGGTTCTAACCTGTTGCCT (site GTCTATGCTAG) in the records?
## Output 0.00989

## Input Data request, read-out recombinant barcode read abundance (log10), for GCGTCCTCTTGGGTTCTAACCTGTTGCTT (site GCGTCCTCTAA)
## Output 0.636

## Input Entry under review: GTCGGCGCTTGGGTTCTAACCTGTTGCCT (site GTTGGCGCTAG) . Reported recombinant barcode read abundance (log10)?
## Output 0.256

## Input Please report the recorded recombinant barcode read abundance (log10) for CTATTTACTTGGGTTCTAACCTGTTGCGG (site CTATTTACTCC) .
## Output 0.781

## Input Entry TGGACGCCTTGGGTTCTAACCTGTTGCCT (site TGGACGTCTAG) has what recombinant barcode read abundance (log10)?
## Output 0.0267

## Input // query recombinant barcode read abundance (log10) value for entry ACTTCCACTTGGGTTCTAACCTGTTGCCT (site GCTTCCACTAG)
## Output 0.0573

## Input I am curious: what recombinant barcode read abundance (log10) value has been reported for TAATTGTCTTGGGTTCTAACCTGTTGCGT (site CAATTGTCTAC) ?
## Output 0.725

## Input Form field: reported recombinant barcode read abundance (log10) of CACTTGGCTTGGGTTCTAACCTGTTGCCT (site CACTTGCCTAG)
## Output 0.366

## Input Report recombinant barcode read abundance (log10) for CGTATAGCTTGGGTTCTAACCTGTTGCCT (site CGTATAGCTAG) please.
## Output 0.285

## Input For the sequence shown here, CCGAGTCCTTGGGTTCTAACCTGTTGCCT (site CCGAATCCTAG) , give the reported recombinant barcode read abundance (log10).
## Output 0.328

## Input Given the entry ACTTGAACTTGGGTTCTAACCTGTTGCCT (site ACTTGAACTAG) , report its measured recombinant barcode read abundance (log10).
## Output 0.383

## Input Please report the recorded recombinant barcode read abundance (log10) for TTCTTCCCTTGGGTTCTAACCTGTTGCCT (site TTGTACCCTAG) .
## Output 0.1

## Input Consider the sequence shown here: TGATAGACTTGGGTTCTAACCTGTTGCAC (site TGATAGACTGT) What is its recorded recombinant barcode read abundance (log10)?
## Output 1.38

## Input I have this sequence here, CTGAGGACTTGGGTTCTAACCTGTTGCCT (site TTGAGGACTAG) , and I need its recorded recombinant barcode read abundance (log10).
## Output 0.325

## Input Returns the measured recombinant barcode read abundance (log10) for the input sequence. Input: TGTCAACCTTGGGTTCTAACCTGTTGCCT (site TGTCAAACTAG)
## Output 0.346

## Input Item TCATAGCCTTGGGTTCTAACCTGTTGCTG (site TCAGAGCCTCA) has what recorded recombinant barcode read abundance (log10)?
## Output 0.087

## Input Would you kindly share the measured recombinant barcode read abundance (log10) for CCACTAGCTTGGGTTCTAACCTGTTGCAG (site CCACTAGCTCT) ?
## Output 0.85

## Input Data request, read-out recombinant barcode read abundance (log10), for CTATTGTCTTGGGTTCTAACCTGTTGCGT (site CTATTGTCTGC)
## Output 0.475

## Input I am curious: what recombinant barcode read abundance (log10) value has been reported for TAGAAGGCTTGGGTTCTAACCTGTTGCCT (site TAGAAGGCTAA) ?
## Output 0.139

## Input Fill blank: measured recombinant barcode read abundance (log10) of the sequence ACCTGCCCTTGGGTTCTAACCTGTTGCCT (site ACCTGTCCTAG) is ____.
## Output 0.232
